Source: ChEMBL document CHEMBL1629464

- TARGET_SYSTEM: UniProtKB Q9Z0U5
- Sequence (Q9Z0U5 whole entry): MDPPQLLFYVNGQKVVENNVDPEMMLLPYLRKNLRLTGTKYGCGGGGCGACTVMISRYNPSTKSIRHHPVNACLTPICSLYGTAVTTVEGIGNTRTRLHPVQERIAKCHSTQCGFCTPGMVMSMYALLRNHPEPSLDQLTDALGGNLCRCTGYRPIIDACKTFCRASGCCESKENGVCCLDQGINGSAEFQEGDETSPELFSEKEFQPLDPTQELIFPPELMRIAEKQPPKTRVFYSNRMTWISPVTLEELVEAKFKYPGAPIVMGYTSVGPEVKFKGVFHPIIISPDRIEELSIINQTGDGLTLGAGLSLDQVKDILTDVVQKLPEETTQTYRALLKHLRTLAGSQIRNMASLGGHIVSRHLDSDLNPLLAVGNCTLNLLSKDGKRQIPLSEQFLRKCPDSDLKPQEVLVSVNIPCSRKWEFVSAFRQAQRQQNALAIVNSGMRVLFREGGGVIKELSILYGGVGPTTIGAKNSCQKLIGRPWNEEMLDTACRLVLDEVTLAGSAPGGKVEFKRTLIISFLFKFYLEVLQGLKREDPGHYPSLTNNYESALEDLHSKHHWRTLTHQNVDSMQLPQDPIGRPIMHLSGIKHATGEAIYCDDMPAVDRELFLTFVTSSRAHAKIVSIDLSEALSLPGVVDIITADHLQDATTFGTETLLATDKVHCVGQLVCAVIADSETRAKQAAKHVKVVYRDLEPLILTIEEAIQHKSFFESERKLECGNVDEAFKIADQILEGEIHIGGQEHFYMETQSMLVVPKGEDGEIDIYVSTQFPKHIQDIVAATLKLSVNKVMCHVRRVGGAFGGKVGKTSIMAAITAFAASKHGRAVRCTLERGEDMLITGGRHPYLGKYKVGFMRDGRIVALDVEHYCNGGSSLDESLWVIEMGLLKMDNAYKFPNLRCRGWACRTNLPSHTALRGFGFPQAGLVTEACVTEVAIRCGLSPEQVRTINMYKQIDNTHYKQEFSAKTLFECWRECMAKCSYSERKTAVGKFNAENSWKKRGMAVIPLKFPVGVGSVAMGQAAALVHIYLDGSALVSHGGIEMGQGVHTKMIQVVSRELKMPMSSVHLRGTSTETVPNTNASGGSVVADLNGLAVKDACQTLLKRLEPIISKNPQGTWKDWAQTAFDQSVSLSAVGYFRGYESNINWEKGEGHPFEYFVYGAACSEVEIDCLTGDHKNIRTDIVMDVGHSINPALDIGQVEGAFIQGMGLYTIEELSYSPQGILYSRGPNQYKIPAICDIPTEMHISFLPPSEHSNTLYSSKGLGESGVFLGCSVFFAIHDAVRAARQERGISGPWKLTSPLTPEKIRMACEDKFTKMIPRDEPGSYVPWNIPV
Would you kindly list IC50 for each of these compounds?
Answers are plain numbers, in nM.

COMPOUND: CN(C)CCNC(=O)c1cccc2cc3cc(O)ccc3nc12
IC50 (nM): 320

Then there is this compound:
Prompt: I am curious: what IC50 value has been reported for O=C(c1ccc(OCCN2CCCCC2)cc1)c1c(-c2ccc(O)cc2)sc2cc(O)ccc12 [RALOXIFENE] ?
Completion: 1100

---

- EXPERIMENTAL_DETAILS: Oral bioavailability in dog
- Assay type: ADME, organism-based, Canis lupus familiaris
- STATED_CONDITIONS: in vivo
MEASURED_ATTRIBUTE: bioavailability
State the value with its unit after it.

Prompt: Which measured bioavailability value corresponds to `CCNC(=O)OC1CCN(c2n[nH]c(=O)c3cc(OC)c(OC)cc23)CC1` ?
Completion: 68%
